Data credit: PubChem BioAssay (NCATS)

# protocolConditions: Ebola virus entry assay, reporter ratio channel; Channel type: primary
Calls of active or inactive are those of the source. How the calls were made is not given here.
Outcomes you can answer with include only these: yes (active), no (inactive)

For orientation, consider the following solved cases.
Nc1ccc(Cl)cc1
no
CC1=NN(c2ccccc2)C(=O)C1
no
C[C@]12C[C@H](O)[C@H]3[C@@H](CCC4=CC(=O)CC[C@@]43C)[C@@H]1CC[C@@H]2C(=O)CO
no
O=C(O)c1cc(Oc2ccc(C(F)(F)F)cc2Cl)ccc1[N+](=O)[O-]
no
O=S(=O)(c1ccc(Cl)cc1)c1ccc(Cl)cc1
no

How did this test come out for CS(=O)(=O)Nc1ccc([N+](=O)[O-])cc1Oc1ccccc1 ?
no

State the result this test recorded for CCCCCCCCCCC(CO)CCCCCCCC (configuration not stated) .
no

Tell me the recorded outcome of this test for C1=CC2C3C=CC(C3)C2C1 (configuration not stated) .
no

Please let me know the test result on file for O=C(O)c1ccccc1O .
no

* * *

# protocolSummary: Quantitative High-Throughput drug screen in 47 multiple myeloma cell lines against the NCATS MIPE library collection: SKMM1_PLB cell viability assay (AID 1919863); further: nearly all actives have a fitted effect of over 35% in size
# protocolConditions: SKMM1 myeloma viability, CellTiter-Glo ATP, 48 h; active compounds read low
Inconclusive results are not listed.
Some compounds, each annotated with its measured viability.
Answer in %, number only, no unit symbol.

Check out these entries, answers already filled in.
CC(C)[C@]12O[C@@H]1[C@@H]1O[C@]13[C@]1(O[C@H]1C[C@@H]1C4=C(CC[C@@]13C)C(=O)OC4)[C@H]2O
-10.1
CCN(CC)C(=O)c1ccc(C2=CC3(CCNCC3)Oc3cccc(O)c32)cc1
112
COc1cc2cc(c1Cl)N(C)C(=O)C[C@H](OC(=O)C(C)C)[C@]1(C)O[C@H]1[C@H](C)[C@@H]1C[C@@](O)(NC(=O)O1)[C@H](OC)C=CC=C(C)C2
50.1

Kindly consider the entry below.
The compound Cc1nc(-c2ccc(-c3ccc(C(=O)N4CCc5cc6c(cc54)C4(CCN(C)CC4)CO6)cc3)c(C)c2)no1 showed viability equal to 124

* * *

# protocolSummary: Quantitative High-Throughput drug screen in 47 multiple myeloma cell lines against the NCATS MIPE library collection: OCIMY1_PLB cell viability assay (AID 1918979); further: nearly all actives have a fitted effect of over 35% in size; further: potency means the concentration at half of the fitted maximal effect;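 on viability: 100% = DMSO-only wells and 0% = cell-free media-only wells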
# protocolConditions: OCI-MY1 myeloma viability, CellTiter-Glo ATP, 48 h; series mostly up to 45.8 µM
Inconclusive results are not listed. Calls of active or inactive are those of the source. Calls follow the shape of the dose curve; as a rule, active = well fitted cell-killing curve with a large enough effect; inconclusive = small, poorly fitted or top-dose-only effect, or effect the other way; inactive = no such curve, though single readings can be large or run the other way.
measuredAttribute: Potency

O=C(Nc1ccncc1)C(=O)c1cn(Cc2ccc(Cl)cc2)c2ccccc12
118 nM (active)
CC=C(C)C(=O)O[C@H]1C(C)=C2[C@@H]3OC(=O)[C@@](C)(O)[C@@]3(O)[C@@H](OC(=O)CCC)C[C@](C)(OC(C)=O)[C@@H]2[C@@H]1OC(=O)CCCCCCC
105 nM (active)
Cc1c(N)nc([C@H](CC(N)=O)NC[C@@H](N)C(N)=O)nc1C(=O)N[C@H](C(=O)N[C@@H](C)[C@H](O)[C@@H](C)C(=O)N[C@@H](C(=O)NCCc1nc(-c2nc(C(=O)NCCC[S+](C)C)cs2)cs1)[C@@H](C)O)C(O[C@H]1O[C@H](CO)[C@H](O)[C@@H](O)[C@@H]1O[C@H]1O[C@H](CO)[C@@H](O)[C@H](OC(N)=O)[C@H]1O)c1cnc[nH]1 (some centres not stated)
13200 nM (active)
CC(=O)N(C)c1cccc(-c2ccnc3c(C(=O)c4cccs4)cnn23)c1
inactive
C[C@](O)(COc1ccc(C#N)cc1)C(=O)Nc1ccc(C#N)c(C(F)(F)F)c1
inactive
CC(=Cc1csc(C)n1)[C@@H]1C[C@H]2O[C@@H]2CCC[C@H](C)[C@@H](O)[C@@H](C)C(=O)C(C)(C)[C@@H](O)CC(=O)O1
inactive
CC(O)=C(C#N)C(=O)Nc1cc(Br)ccc1Br
inactive
Cc1[nH]nc2ccc(-c3cncc(OC[C@@H](N)Cc4c[nH]c5ccccc45)c3)cc12
1870 nM (active)

Quick note, Potency for CCOC(=O)Nc1ccc(NCc2ccc(F)cc2)cc1N landed at inactive

The recorded Potency for CCOC(=O)c1c(C(C#N)=CN)c2ccc(Cl)c(Cl)c2n1C is inactive
